FYI, the data here is from patent US20150274820A1.

Target: T1, recombinant human VEGF165 (human, UniProt P15692 27-191)
T1 construct: mature; Isoform VEGF165 of the entry; also called hVEGF165; hVEGF
T1 sequence (P15692 other isoform, or with tags, fused parts or gaps): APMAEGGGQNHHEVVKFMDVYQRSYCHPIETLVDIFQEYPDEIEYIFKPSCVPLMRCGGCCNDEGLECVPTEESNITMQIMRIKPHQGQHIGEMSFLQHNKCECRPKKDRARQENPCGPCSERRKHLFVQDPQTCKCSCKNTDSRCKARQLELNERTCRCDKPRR
Assay: Biacore SPR, VEGF immobilized, pH 5
Please go through the items and note down their pKd.
One number for each entry, as −log10 of the molar value.

- BINDER: "578min_max V89A (scFv, the VH entry already carries V89A; tied by name; also called Protein Nr; 978) scFv: EIVMTQSPSTLSASVGDRVIITCQASEIIHSWLAWYQQKPGKAPKLLIYLASTLASGVPSRFSGSGSGAEFTLTISSLQPDDFATYYCQNVYLASTNGANFGQGTKLTVLGGGGGSGGGGSGGGGSGGGGSEVQLVESGGGLVQPGGSLRLSCTASGFSLTDYYYMTWVRQAPGKGLEWVGFIDPDDDPYYATWAKGRFTISRDTSKNTAYLQMNSLRAEDTAVYYCAGGDHNSGWGLDIWGQGTLVTVSS"
  pKd: 8.92
- BINDER: "578min_max T84N_V89L (scFv, the VH entry already carries T84N and V89L; tied by name; also called Protein No. 1008) scFv: EIVMTQSPSTLSASVGDRVIITCQASEIIHSWLAWYQQKPGKAPKLLIYLASTLASGVPSRFSGSGSGAEFTLTISSLQPDDFATYYCQNVYLASTNGANFGQGTKLTVLGGGGGSGGGGSGGGGSGGGGSEVQLVESGGGLVQPGGSLRLSCTASGFSLTDYYYMTWVRQAPGKGLEWVGFIDPDDDPYYATWAKGRFTISRDNSKNTLYLQMNSLRAEDTAVYYCAGGDHNSGWGLDIWGQGTLVTVSS"
  pKd: 8.80

Now take the following binder into account.
511min_max (scFv, also called Protein Nr; 904) scFv: EIVMTQSPSTLSASVGDRVIITCQASQSINIWCSWYQQKPGKAPKLLIYRASTLASGVPSRFSGSGSGAEFTLTISSLQPDDFATYYCQANYAYSAGYGAAFGQGTKLTVLGGGGGSGGGGSGGGGSGGGGSEVQLVESGGGLVQPGGSLRLSCTVSGFSLNTYYMNWVRQAPGKGLEWVGIIAPDDTTYYASWAKSRSTISRDTSKNTVYLQMNSLRAEDTAVYYCARSGDTTAWGADIWGQGTLVTVSS has a reported pKd of 9.56
